Reference source for all entries: patent US9566312B2

# ASSAYED_SYSTEM: UniProtKB P62937
# ASSAY_PROCEDURE: Inhibitor binding to cyclophilin proteins by SPR, CypA
# Design: unit not given here
# MEASUREMENT_PARAMETERS: 1:1 binding model
Starred links: 1 amine or outer side, 2 acyl side, 3 side chain; linkers in the order of their positions; H or OH if unused. Non-standard residues stand in square brackets, D forms with d. Residues, ends and D or L forms follow the SMILES beside them. X44 = CC(C)N1CCN(C(=O)COC[C@@H](C)[C@@H](C(=O)[*:2])N(C)[*:1])CC1; X33 = CC(C)N1CCOC(COC[C@@H](C)[C@@H](C(=O)[*:2])N(C)[*:1])C1; MeBmt = C/C=C/C[C@@H](C)[C@@H](O)[C@H](NC)C(=O)O; NMeL = CN[C@@H](CC(C)C)C(=O)O; NMeV = CN[C@H](C(=O)O)C(C)C; dNMeA = CN[C@H](C)C(=O)O; Abu = CC[C@H](N)C(=O)O
We begin with a simple list: items and their reported CypA Kd.
Output spec: single numeric token, no unit.

C/C=C/C[C@@H](C)[C@@H](O)[C@H]1C(=O)N[C@@H](CC)C(=O)N(C)[C@H](C)C(=O)N(C)[C@@H]([C@H](C)COCC(=O)N2CCN(C(C)C)CC2)C(=O)N[C@@H](C(C)C)C(=O)N(C)[C@@H](CC(C)C)C(=O)N[C@@H](C)C(=O)N[C@H](C)C(=O)N(C)[C@@H](CC(C)C)C(=O)N(C)[C@@H](CC(C)C)C(=O)N(C)[C@@H](C(C)C)C(=O)N1C [Compound 2.6.4] (cyclo(A[dA][NMeL][NMeL][NMeV][MeBmt][Abu][dNMeA][X44]V[NMeL])) :: 1.4

From here, focus on the item given below.
// field: CypA Kd; key: C/C=C/C[C@@H](C)[C@@H](O)[C@H]1C(=O)N[C@@H](CC)C(=O)N(C)[C@H](C)C(=O)N(C)[C@@H]([C@H](C)COCC2CN(C(C)C)CCO2)C(=O)N[C@@H](C(C)C)C(=O)N(C)[C@@H](CC(C)C)C(=O)N[C@@H](C)C(=O)N[C@H](C)C(=O)N(C)[C@@H](CC(C)C)C(=O)N(C)[C@@H](CC(C)C)C(=O)N(C)[C@@H](C(C)C)C(=O)N1C (some centres unmarked) [Compound 2.20.2] (cyclo(A[dA][NMeL][NMeL][NMeV][MeBmt][Abu][dNMeA][X33]V[NMeL])) ; value = 0.6

----------
# ASSAYED_SYSTEM: UniProt P30405
# Sequence (P30405 30-207): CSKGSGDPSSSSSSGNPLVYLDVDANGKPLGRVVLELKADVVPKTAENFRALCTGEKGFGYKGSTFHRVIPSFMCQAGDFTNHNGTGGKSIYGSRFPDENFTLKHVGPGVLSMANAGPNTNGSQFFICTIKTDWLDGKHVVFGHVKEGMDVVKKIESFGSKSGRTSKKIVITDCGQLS
# ASSAY_PROCEDURE: Inhibitor binding to cyclophilin proteins by SPR, CypF
# MEASUREMENT_PARAMETERS: 1:1 binding model
Starred links: 1 amine or outer side, 2 acyl side, 3 side chain; linkers in the order of their positions; H or OH if unused. Non-standard residues stand in square brackets, D forms with d. Residues, ends and D or L forms follow the SMILES beside them. X49 = C[C@H](CCC(=O)N1CCN(C)CC1)[C@@H](C(=O)[*:2])N(C)[*:1]; X60 = C[C@H](CCCN1CC2CCC(C1)N2C)[C@@H](C(=O)[*:2])N(C)[*:1]; MeBmt = C/C=C/C[C@@H](C)[C@@H](O)[C@H](NC)C(=O)O; NMeL = CN[C@@H](CC(C)C)C(=O)O; NMeV = CN[C@H](C(=O)O)C(C)C; dNMeA = CN[C@H](C)C(=O)O; Abu = CC[C@H](N)C(=O)O
REPORTED_METRIC: CypF Kd (nM)
// return numeric value only (unit: nM, not printed)

C/C=C/C[C@@H](C)[C@@H](O)[C@H]1C(=O)N[C@@H](CC)C(=O)N(C)[C@H](C)C(=O)N(C)[C@@H]([C@H](C)CCCN2CC3CCC(C2)N3C)C(=O)N[C@@H](C(C)C)C(=O)N(C)[C@@H](CC(C)C)C(=O)N[C@@H](C)C(=O)N[C@H](C)C(=O)N(C)[C@@H](CC(C)C)C(=O)N(C)[C@@H](CC(C)C)C(=O)N(C)[C@@H](C(C)C)C(=O)N1C [Compound 2.19.3] (cyclo(A[dA][NMeL][NMeL][NMeV][MeBmt][Abu][dNMeA][X60]V[NMeL])) :: 0.3

// field: CypF Kd; key: C/C=C/C[C@@H](C)[C@@H](O)[C@H]1C(=O)N[C@@H](CC)C(=O)N(C)[C@H](C)C(=O)N(C)[C@@H]([C@H](C)CCC(=O)N2CCN(C)CC2)C(=O)N[C@@H](C(C)C)C(=O)N(C)[C@@H](CC(C)C)C(=O)N[C@@H](C)C(=O)N[C@H](C)C(=O)N(C)[C@@H](CC(C)C)C(=O)N(C)[C@@H](CC(C)C)C(=O)N(C)[C@@H](C(C)C)C(=O)N1C [Compound 2.14.3] (cyclo(A[dA][NMeL][NMeL][NMeV][MeBmt][Abu][dNMeA][X49]V[NMeL])) ; value = 0.9

----------
# ASSAYED_SYSTEM: cyclophilin A (CypA) (Homo sapiens (Human), UniProt P62937)
# Sequence (P62937 whole entry): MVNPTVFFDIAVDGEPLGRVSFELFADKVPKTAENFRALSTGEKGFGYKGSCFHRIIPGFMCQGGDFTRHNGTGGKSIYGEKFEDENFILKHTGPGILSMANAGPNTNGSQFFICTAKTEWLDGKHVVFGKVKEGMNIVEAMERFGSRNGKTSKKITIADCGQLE
# ASSAY_PROCEDURE: Inhibitor binding to cyclophilin proteins by SPR, CypA;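 also: Single-cycle kinetics on a Biacore T200, compound injected at several concentrations for 1 min each at 50 µL/min, then 10 min dissociation, in HEPES pH 7.4 buffer with 3% DMSO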
# Parameters: unit not given here
# MEASUREMENT_PARAMETERS: 1:1 binding model
Starred links: 1 amine or outer side, 2 acyl side, 3 side chain; linkers in the order of their positions; H or OH if unused. Non-standard residues stand in square brackets, D forms with d. Residues, ends and D or L forms follow the SMILES beside them. X75 = C[C@H](CCC(C)(C)OC(=O)N1CCN(C)CC1)[C@@H](C(=O)[*:2])N(C)[*:1]; X56 = CCN1CCN(C(=O)OC[C@@H](C)[C@@H](C(=O)[*:2])N(C)[*:1])CC1; X66 = C[C@H](COCC(=O)N1CCN(C)CC1)[C@@H](C(=O)[*:2])N(C)[*:1]; X72 = C[C@H](CCN1CCN(C2CCC2)CC1)[C@@H](C(=O)[*:2])N(C)[*:1]; X52 = C[C@H](CCC(=O)N1CCOCC1)[C@@H](C(=O)[*:2])N(C)[*:1]; X14 = C[C@H](CN1CCN(C)CC1)[C@@H](C(=O)[*:2])N(C)[*:1]; MeBmt = C/C=C/C[C@@H](C)[C@@H](O)[C@H](NC)C(=O)O; NMeL = CN[C@@H](CC(C)C)C(=O)O; NMeV = CN[C@H](C(=O)O)C(C)C; dNMeA = CN[C@H](C)C(=O)O; Abu = CC[C@H](N)C(=O)O
We begin with a simple list: items and their reported CypA Kd.

Below are worked cases with known answers.
C/C=C/C[C@@H](C)[C@@H](O)[C@H]1C(=O)N[C@@H](CC)C(=O)N(C)[C@H](C)C(=O)N(C)[C@@H]([C@H](C)CCN2CCN(C3CCC3)CC2)C(=O)N[C@@H](C(C)C)C(=O)N(C)[C@@H](CC(C)C)C(=O)N[C@@H](C)C(=O)N[C@H](C)C(=O)N(C)[C@@H](CC(C)C)C(=O)N(C)[C@@H](CC(C)C)C(=O)N(C)[C@@H](C(C)C)C(=O)N1C [Compound 2.18.10] (cyclo(A[dA][NMeL][NMeL][NMeV][MeBmt][Abu][dNMeA][X72]V[NMeL])) :: 1.5
C/C=C/C[C@@H](C)[C@@H](O)[C@H]1C(=O)N[C@@H](CC)C(=O)N(C)[C@H](C)C(=O)N(C)[C@@H]([C@H](C)CCC(=O)N2CCOCC2)C(=O)N[C@@H](C(C)C)C(=O)N(C)[C@@H](CC(C)C)C(=O)N[C@@H](C)C(=O)N[C@H](C)C(=O)N(C)[C@@H](CC(C)C)C(=O)N(C)[C@@H](CC(C)C)C(=O)N(C)[C@@H](C(C)C)C(=O)N1C [Compound 2.14.4] (cyclo(A[dA][NMeL][NMeL][NMeV][MeBmt][Abu][dNMeA][X52]V[NMeL])) :: 2.1
C/C=C/C[C@@H](C)[C@@H](O)[C@H]1C(=O)N[C@@H](CC)C(=O)N(C)[C@H](C)C(=O)N(C)[C@@H]([C@H](C)COC(=O)N2CCN(CC)CC2)C(=O)N[C@@H](C(C)C)C(=O)N(C)[C@@H](CC(C)C)C(=O)N[C@@H](C)C(=O)N[C@H](C)C(=O)N(C)[C@@H](CC(C)C)C(=O)N(C)[C@@H](CC(C)C)C(=O)N(C)[C@@H](C(C)C)C(=O)N1C [Compound 2.5.24] (cyclo(A[dA][NMeL][NMeL][NMeV][MeBmt][Abu][dNMeA][X56]V[NMeL])) :: 0.5
C/C=C/C[C@@H](C)[C@@H](O)[C@H]1C(=O)N[C@@H](CC)C(=O)N(C)[C@H](C)C(=O)N(C)[C@@H]([C@H](C)CCN2CCOCC2)C(=O)N[C@@H](C(C)C)C(=O)N(C)[C@@H](CC(C)C)C(=O)N[C@@H](C)C(=O)N[C@H](C)C(=O)N(C)[C@@H](CC(C)C)C(=O)N(C)[C@@H](CC(C)C)C(=O)N(C)[C@@H](C(C)C)C(=O)N1C (stereo in doubt) :: 1.5
C/C=C/C[C@@H](C)[C@@H](O)[C@H]1C(=O)N[C@@H](CC)C(=O)N(C)[C@H](C)C(=O)N(C)[C@@H]([C@H](C)CN2CCN(C)CC2)C(=O)N[C@@H](C(C)C)C(=O)N(C)[C@@H](CC(C)C)C(=O)N[C@@H](C)C(=O)N[C@H](C)C(=O)N(C)[C@@H](CC(C)C)C(=O)N(C)[C@@H](CC(C)C)C(=O)N(C)[C@@H](C(C)C)C(=O)N1C [Compound 2.5.29] (cyclo(A[dA][NMeL][NMeL][NMeV][MeBmt][Abu][dNMeA][X14]V[NMeL])) :: 1.5

// field: CypA Kd; key: C/C=C/C[C@@H](C)[C@@H](O)[C@H]1C(=O)N[C@@H](CC)C(=O)N(C)[C@H](C)C(=O)N(C)[C@@H]([C@H](C)CCC(C)(C)OC(=O)N2CCN(C)CC2)C(=O)N[C@@H](C(C)C)C(=O)N(C)[C@@H](CC(C)C)C(=O)N[C@@H](C)C(=O)N[C@H](C)C(=O)N(C)[C@@H](CC(C)C)C(=O)N(C)[C@@H](CC(C)C)C(=O)N(C)[C@@H](C(C)C)C(=O)N1C [Compound 2.12.2] (cyclo(A[dA][NMeL][NMeL][NMeV][MeBmt][Abu][dNMeA][X75]V[NMeL])) ; value = 22

// field: CypA Kd; key: C/C=C/C[C@@H](C)[C@@H](O)[C@H]1C(=O)N[C@@H](CC)C(=O)N(C)[C@H](C)C(=O)N(C)[C@@H]([C@H](C)COCC(=O)N2CCN(C)CC2)C(=O)N[C@@H](C(C)C)C(=O)N(C)[C@@H](CC(C)C)C(=O)N[C@@H](C)C(=O)N[C@H](C)C(=O)N(C)[C@@H](CC(C)C)C(=O)N(C)[C@@H](CC(C)C)C(=O)N(C)[C@@H](C(C)C)C(=O)N1C [Compound 2.6.3] (cyclo(A[dA][NMeL][NMeL][NMeV][MeBmt][Abu][dNMeA][X66]V[NMeL])) ; value = 1.5

// field: CypA Kd; key: C/C=C/C[C@@H](C)[C@@H](O)[C@H]1C(=O)N[C@@H](CC)C(=O)N(C)[C@H](C)C(=O)N(C)[C@@H]([C@H](C)CO[C@H]2CCOC2)C(=O)N[C@@H](C(C)C)C(=O)N(C)[C@@H](CC(C)C)C(=O)N[C@@H](C)C(=O)N[C@H](C)C(=O)N(C)[C@@H](CC(C)C)C(=O)N(C)[C@@H](CC(C)C)C(=O)N(C)[C@@H](C(C)C)C(=O)N1C (stereo in doubt) ; value = 1.0
